Sourced from PubChem BioAssay AID1845194

- Test system: 287954-098-R-J1 tumor spheroid viability
- test.method.notes: Anticancer human tumor 287954-098-R-J1 patient-derived Ewing sarcoma cell line growth inhibition; active means viability on the fitted dose curve at most 10% of control; inactive means the rest
- test.parameters: second compound 10 µM; first compound 3 µM; spheroids with HUVEC and MSC
Labels: TRUE (active), FALSE (inactive)

1) Cn1ncnc1[C@H]1c2n[nH]c(=O)c3cc(F)cc(c23)N[C@@H]1c1ccc(F)cc1 + Cn1nnc2c(C(N)=O)ncn2c1=O = TRUE
2) O=C(c1cc(Cc2n[nH]c(=O)c3ccccc23)ccc1F)N1CCN(C(=O)C2CC2)CC1 + Cn1nnc2c(C(N)=O)ncn2c1=O = FALSE
3) CNCc1ccc(-c2cc(-c3nc(-c4ccc(S(=O)(=O)C(C)C)cc4)cnc3N)on2)cc1 + Cn1nnc2c(C(N)=O)ncn2c1=O = TRUE
4) Cc1sc2c(c1C)C(c1ccc(Cl)cc1)=NC(CC(=O)Nc1ccc(O)cc1)c1nnc(C)n1-2 (centres undefined) + Cn1nnc2c(C(N)=O)ncn2c1=O = TRUE

====

- System: 287954-098-R-J1 tumor spheroid viability
- test.method.notes: Anticancer human tumor 287954-098-R-J1 cell line growth inhibition;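 further: luminescent signal taken as surrogate of viable cell content; spheroids exposed to compound for 7 days before viability readout; 100% = DMSO vehicle control viability and lower means growth inhibition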
- test.parameters: second compound 0.3 µM; first compound 0.3 µM; hits give low values; spheroids with HUVEC and MSC
parameter: viability, T/C (%)

1. Cc1sc2c(c1C)C(c1ccc(Cl)cc1)=NC(CC(=O)Nc1ccc(O)cc1)c1nnc(C)n1-2 (centres undefined) + CC[C@@]1(O)C(=O)OCc2c1cc1n(c2=O)Cc2cc3c(CN(C)C)c(O)ccc3nc2-1 = 1.25
2. O=C(c1cc(Cc2n[nH]c(=O)c3ccccc23)ccc1F)N1CCN(C(=O)C2CC2)CC1 + CC[C@@]1(O)C(=O)OCc2c1cc1n(c2=O)Cc2cc3c(CN(C)C)c(O)ccc3nc2-1 = 1.89
3. CNCc1ccc(-c2cc(-c3nc(-c4ccc(S(=O)(=O)C(C)C)cc4)cnc3N)on2)cc1 + CC[C@@]1(O)C(=O)OCc2c1cc1n(c2=O)Cc2cc3c(CN(C)C)c(O)ccc3nc2-1 = 1.94
4. Cn1ncnc1[C@H]1c2n[nH]c(=O)c3cc(F)cc(c23)N[C@@H]1c1ccc(F)cc1 + CC[C@@]1(O)C(=O)OCc2c1cc1n(c2=O)Cc2cc3c(CN(C)C)c(O)ccc3nc2-1 = 1.59

====

The entries below are paired with their reported viability, T/C.
- Test system: 287954-098-R-J1 tumor spheroid viability
- test.method.notes: Anticancer human tumor 287954-098-R-J1 cell line growth inhibition;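 further: luminescent signal taken as surrogate of viable cell content; spheroids exposed to compound for 7 days before viability readout; 100% = DMSO vehicle control viability and lower means growth inhibition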
- test.parameters: second compound 0.0949 µM; first compound 0.1 µM; hits give low values; spheroids with HUVEC and MSC
parameter: viability, T/C (%)

1) COc1cc(C)[nH]c(=O)c1CN1CCc2c(Cl)cc(C(OC)C3COC3)c(Cl)c2C1=O (stereo not drawn) + CC[C@@]1(O)C(=O)OCc2c1cc1n(c2=O)Cc2cc3c(CN(C)C)c(O)ccc3nc2-1 = 1.55
2) COc1ccc([C@@H](O)c2cc(-c3ncnc4cc(N5CCOCC5)ccc34)c(F)cc2Cl)nn1 + CC[C@@]1(O)C(=O)OCc2c1cc1n(c2=O)Cc2cc3c(CN(C)C)c(O)ccc3nc2-1 = 1.03
3) CC1COCCN1c1cc(-c2ccnn2C)c2ccnc(-c3ccn[nH]3)c2n1 (stereo not drawn) + CC[C@@]1(O)C(=O)OCc2c1cc1n(c2=O)Cc2cc3c(CN(C)C)c(O)ccc3nc2-1 = 1.31
